Experiment: NCI Yeast Anticancer Drug Screen. Data for the sgs1 mgt1 strain (AID 161);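 further: 0% = growth of cultures given vehicle only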
Details: S. cerevisiae sgs1 mgt1 strain, at 50.0 µM, active compounds read high
About 79,000 compounds went through this panel and 15% of them were active in at least one assay; those are over-represented in the sample as a whole.
Each item that follows carries a reported growth inhibition.

compound	units.of.measure	growth inhibition
O=C(O)CCC(C(=O)O)N(Cc1ccccc1)Cc1ccccc1 (centres undefined)	%	-1.45
O=C(Cc1nc2ccc(Cl)cc2[nH]c1=O)c1ccncc1	%	-3.55
CCCCCCCCCCCCCCCCCC[N+](CCCC)(CCCC)CCCCCCCCCCCCCCCCCC (tested in a mixture with another compound)	%	1.7
O=C(CC(c1ccccc1)C1CCCN(c2ccccc2)S1(=O)=O)c1ccccc1 (centres undefined)	%	11.1
c1ccc(-c2ccc[n+](C[n+]3cccc(-c4ccccn4)c3)c2)nc1	%	-22.9
NC1=NC=N/C(=N\c2ccccn2)C1N (centres undefined)	%	-5.4
N#C/C(=N\NC(=O)c1cccs1)c1ccccc1Cl	%	8
N#Cc1c2nc3ccccc3nc2n2ccc3ccccc3c12	%	-83.3
Cc1nc(=S)[nH][nH]1	%	6.15
CCCCCSc1nc2c([nH]1)c(=O)n(C)c(=S)n2C	%	1.95
O=c1[nH]c2nc3ccccc3c(=O)n2/c1=C/c1ccc(Cl)cc1	%	43.4
CC1CN=C(c2c(O)ccc3ccccc23)S1 (centres undefined)	%	79.8
N#CC1C[C@@H]2CC3(CCC2CN1C(=O)c1ccccc1)OCCO3 (some centres undefined)	%	-12.1
Cn1c(C2CCc3cc(O)ccc3C2)cccc1=O (centres undefined)	%	-4.25
CC(O)C(C)[N+](=O)[O-] (centres undefined)	%	-2.8
COC(=O)C(CC1=C(O)Nc2ccccc2N1)/C(=N/NC(N)=O)C(=O)Nc1ccccc1C (centres undefined)	%	13.6
COc1cc([N+](=O)[O-])ccc1P(=O)(O)O	%	-1.4
OCC(O)C(O)C(O)C(O)C(O)[C@@H](O)c1nc2ccccc2[nH]1 (some centres undefined)	%	-12.3
N#Cc1ccc(OCc2nc(N)nc(N)c2-c2ccc(Cl)cc2)cc1	%	-16.4
O=C(O)CCSC1=CC(=O)C(SCCC(=O)O)=CC1=O	%	-1.4
O=S1(=O)CCCCc2ccccc21	%	3.75
C=CCn1c(=S)sc2c(C(=O)OCC)c3c(C)cc(C)cn3c2c1=O	%	-60
C=C(C(C)C)C1CC1	%	-4.25
O=C(c1ccccc1)C1C(C(=O)c2ccccc2)C1c1ccccc1 (centres undefined)	%	21.3

----------
Test: NCI Yeast Anticancer Drug Screen. Data for the bub3 strain (AID 167)
Conditions: S. cerevisiae bub3 mutant strain, at 50.0 µM, active compounds read high
This is part of a sample that, as a whole, favours compounds with a hit. Of some 79,000 tested, about 15% had one in any assay.
assay.readout: growth inhibition (%)

compound	assay.readout	assay.value
O=c1cccc(O)[nH]1	growth inhibition	-15.7
CCN(CC)CCOc1ccc(/C=C(\C#N)c2ccc(OCCN(CC)CC)cc2)cc1	growth inhibition	24.1
CC(=O)CC(=O)Nc1ccccc1C	growth inhibition	-11.2
CN(c1ccccc1)c1nc(=[N+](C)C)ss1	growth inhibition	4.3
CCc1ccc(/C(C#N)=C/c2ccc(N(C)CCC#N)cc2)cc1	growth inhibition	16.9
CCOC(=O)N(C)Cc1ccc(Cl)cc1	growth inhibition	-11.8
CCOC(=O)NC(=O)c1cn(CCN2CCN(C(=O)NCCCCCCNC(=O)N3CCN(CCn4cc(C(=O)NC(=O)OCC)c(=O)[nH]c4=O)CC3)CC2)c(=O)[nH]c1=O	growth inhibition	-0.75
CC(N)CCCO (stereo not given)	growth inhibition	-2.05
CCCCS(=N)(=O)CC[C@H](N)C(=O)O (stereo not given in full)	growth inhibition	-47
Nc1cccc(-c2nc3ncnc(N)c3[nH]2)c1	growth inhibition	-18.5
C=CC1=C(C)C2=NC1=CC1=NC(=CC3=C(C)C4=C(O)C(C(=O)OC)C(=C5NC(=C2)C(C)C5CCC(=O)OC/C=C(\C)CCCC(C)CCCC(C)CCCC(C)C)C4=N3)C(CC)=C1C (stereo not given)	growth inhibition	-29.1
CC1(C)Cc2cccc(OC(=O)NO)c2O1	growth inhibition	-3.1
CC(=O)OC(C(=O)N(c1ccccc1)c1ccccc1)c1ccccc1 (stereo not given)	growth inhibition	7.35
O=C(O)/C=C/Sc1ccc(Cl)cc1	growth inhibition	78
COc1ccc(Cl)cc1NC(=O)Nc1ccc(SC)cc1	growth inhibition	33
CCC[N+]1([O-])CCOCC1	growth inhibition	14.3
O=c1nc(Oc2ccccc2)nc2c3ccccc3ccn12	growth inhibition	18.8
CN1CCC(c2ccccc2)(C(O)(c2ccccc2)c2ccccc2)CC1	growth inhibition	0.65
Nc1ccc2ccccc2c1C(=O)c1ccccc1	growth inhibition	-23.6
N#CC(N)=NC1CCC(C2CCC(O)CC2)CC1 (stereo not given)	growth inhibition	16.1
CCOC(=O)CSCCC(=O)OC	growth inhibition	-0.05
c1ccc(-c2cc(-c3ccccc3)nc(-c3ccncc3)c2)cc1	growth inhibition	1.55
OCCCCC(c1ccc(O)cc1)c1ccc(O)cc1	growth inhibition	-18.9
O=c1c2n(c(=O)c3n1CCC=3)CCC=2	growth inhibition	-6.85
OCC12CCCC(OC1)O2 (stereo not given)	growth inhibition	13.8

----------
Assay: NCI Yeast Anticancer Drug Screen. Data for the bub3 strain (AID 167)
Settings: S. cerevisiae bub3 mutant strain, at 50.0 µM, active compounds read high
This is part of a sample that, as a whole, favours compounds with a hit. Of some 79,000 tested, about 15% had one in any assay.
Each item that follows carries a reported growth inhibition.
assay.readout: growth inhibition (%)

compound	assay.readout	assay.value
O=C1C(Cc2ccccc2)C(=O)N2c3ccccc3C=CC2N1c1ccccc1 (stereo unspecified)	growth inhibition	-10
CC(=O)OCC1OC(n2c(S)c(C#N)c(-c3ccccc3)c(C#N)c2=O)C(OC(C)=O)C(OC(C)=O)C1OC(C)=O (stereo unspecified)	growth inhibition	-21.2
NC(Cc1c[nH]c2ccc(O)cc12)C(=O)O (stereo unspecified)	growth inhibition	-0.7
CC1(C)OC(C(CCl)OS(C)(=O)=O)C(C(CCl)OS(C)(=O)=O)O1 (stereo unspecified)	growth inhibition	-3.5
COC(=O)N1C(c2ccccc2)(c2ccccc2)CS1(=O)=O	growth inhibition	11.8
COC(=O)c1nc(NN)[nH]c(=O)c1C	growth inhibition	-26.6
O=[N+]([O-])c1ccc(Oc2ccc(Cl)cc2)cc1	growth inhibition	-18.9
c1ccc(-c2nnn(-n3nnc(-c4ccccc4)n3)n2)cc1	growth inhibition	1.3
CCc1occc(=O)c1O	growth inhibition	16.8
COc1ccc(-c2oc(/C=N/NC(N)=S)c([N+](=O)[O-])c2-c2ccc(OC)c(OC)c2)cc1OC	growth inhibition	28.9
OCC(CN1CCCCC1)(CN1CCCCC1)CN1CCCCC1	growth inhibition	-5.2

----------
Experiment: NCI Yeast Anticancer Drug Screen. Data for the mlh1 rad18 strain (AID 175)
Settings: S. cerevisiae mlh1 rad18 strain growth inhibition; at 50.0 µM; active compounds read high
Compounds without any hit were thinned out: in the full panel of roughly 79,000, 15% have a hit.

compound	units.of.measure	growth inhibition
COc1ccc(S(=O)(=O)N2OC2c2ccccc2)cc1 (stereo unspecified)	%	-6
CCOC(=O)c1cn2ccccc2c1C(=O)OCC	%	-14.8
S=c1nc[nH]c2c1CNC2	%	-6.15
COc1cccc(NC(=S)NNC(=S)NNc2ccccc2)c1	%	63.6
CC1=CC2OC3C(OC(=O)c4ccccc4)C(OC(=O)c4ccccc4)C(C)(C2(COC(=O)c2ccccc2)CC1)C31CO1 (stereo unspecified)	%	17.7
O=S(=O)(O)CCCO	%	-2.4
CC/C(CC(=O)CCC(=O)Nc1ccccc1[N+](=O)[O-])=N/NC(=O)C[n+]1ccccc1	%	-12.7
CC(C)(C)C1CCC2c3c([nH]c4ccccc34)C3C(=O)N(c4ccc(Cl)cc4)C(=O)C3C2C1 (stereo unspecified)	%	-13.2
C=C(Cl)C(=C)CCC(Cl)C(C)(C)Cl (stereo unspecified)	%	-8.4
CCOc1cc([N+](=O)[O-])c(OCC)cc1Cl	%	-29.6
CCOC(=O)C(=CN1C/C(=C/C(C)=C/c2ccccc2)SC1=S)C(=O)OCC	%	4.85

----------
Each item that follows carries a reported growth inhibition.
Assay: NCI Yeast Anticancer Drug Screen. Data for the bub3 strain (AID 167)
Conditions: S. cerevisiae bub3 mutant strain, at 50.0 µM, active compounds read high
About 79,000 compounds went through this panel and 15% of them were active in at least one assay; those are over-represented in the sample as a whole.

compound	units.of.measure	growth inhibition
COC(CCC#N)c1ccc(Cl)cc1 (stereo not given)	%	-31.9
CCOC(=O)c1c(C)c(C)cc(C)c1C	%	2.3
CCc1c2c(nc3ccc(O)cc13)-c1cc3c(c(=O)n1C2)COC(=O)[C@]3(O)CC	%	7.5
COc1ccccc1-n1c(C)nc2c(cnn2CN2CCCCC2)c1=O	%	0.95
CC(=O)NC1C(OCc2ccccc2)OC(COC(=O)CCCCCCCCCCNc2ccc([N+](=O)[O-])c3[nH]c4ccccc4c(=O)c23)C(O)C1OC(C)C(=O)NC(C)C(=O)NC(CCC(N)=O)C(=O)OCc1ccccc1 (stereo not given)	%	6.15
CN1c2ccccc2Nc2cc(C#N)ccc21	%	19.2
S=C(S)NCNC(=S)S.[Zn+2]	%	28.2
Nc1c(Cl)cc(C(=O)NC2CC2)cc1Cl	%	-26.6
CC(=O)NC1=C(N2CCC2C)C(=O)c2ccccc2C1=O (stereo not given)	%	-43.9
Nc1ccccc1/C=C(\C(=O)O)c1ccccc1	%	-0.6
CSCCC(NC(c1ccccc1)c1ccccc1)[P+](=O)O (stereo not given)	%	-3.65
C=C(c1ccccc1)N1N=NC2CCOC21 (stereo not given)	%	-16.8
Nc1ccc(C(C(=O)O)c2ccccc2)cc1 (stereo not given)	%	20.1
CCOC(=O)C(=O)C(Cc1ccccc1)C(=O)OCC (stereo not given)	%	11.7
CCCCCN(C(=O)CCC)c1ccccc1	%	3.2
Cc1ccc(N=Nc2c(C)nn(C(=S)S)c2C)cc1	%	83.3
N=C1CCCC1C(=S)SCCC(N)=O (stereo not given)	%	-30.8
Cc1ccccc1OCC1COCN(C(C)(C)C)CO1 (stereo not given)	%	-20.9
Nc1nc(N)c(-c2ccc(Cl)cc2)c(CCC(=O)Nc2cccc(C(F)(F)F)c2)n1	%	-17.1
Cc1cccc(NC(=S)Nc2ccc(-c3ccc(NC(=S)Nc4cccc(C)c4)cc3)cc2)c1	%	16.2
O=c1ccc2ccc(-c3cnc(O)[nH]c3=O)oc-2c1	%	2.25
NC1=NCCN1	%	16.8
CC1(C)OC2(C)CCC1C1C2N1C(=O)Nc1cccc2ccccc12 (stereo not given)	%	-3.75
Oc1[nH]c2ccccc2c1N=Nc1nc(-c2ccccc2)cs1	%	-30.4
C=CC(=O)NC1CCCCC1	%	-6.8
